A collection of compounds and their measured IC50
Target system: AhR (Homo sapiens, UniProt P35869)
Construct: host or cells: HepG2
Sequence (P35869 11-848): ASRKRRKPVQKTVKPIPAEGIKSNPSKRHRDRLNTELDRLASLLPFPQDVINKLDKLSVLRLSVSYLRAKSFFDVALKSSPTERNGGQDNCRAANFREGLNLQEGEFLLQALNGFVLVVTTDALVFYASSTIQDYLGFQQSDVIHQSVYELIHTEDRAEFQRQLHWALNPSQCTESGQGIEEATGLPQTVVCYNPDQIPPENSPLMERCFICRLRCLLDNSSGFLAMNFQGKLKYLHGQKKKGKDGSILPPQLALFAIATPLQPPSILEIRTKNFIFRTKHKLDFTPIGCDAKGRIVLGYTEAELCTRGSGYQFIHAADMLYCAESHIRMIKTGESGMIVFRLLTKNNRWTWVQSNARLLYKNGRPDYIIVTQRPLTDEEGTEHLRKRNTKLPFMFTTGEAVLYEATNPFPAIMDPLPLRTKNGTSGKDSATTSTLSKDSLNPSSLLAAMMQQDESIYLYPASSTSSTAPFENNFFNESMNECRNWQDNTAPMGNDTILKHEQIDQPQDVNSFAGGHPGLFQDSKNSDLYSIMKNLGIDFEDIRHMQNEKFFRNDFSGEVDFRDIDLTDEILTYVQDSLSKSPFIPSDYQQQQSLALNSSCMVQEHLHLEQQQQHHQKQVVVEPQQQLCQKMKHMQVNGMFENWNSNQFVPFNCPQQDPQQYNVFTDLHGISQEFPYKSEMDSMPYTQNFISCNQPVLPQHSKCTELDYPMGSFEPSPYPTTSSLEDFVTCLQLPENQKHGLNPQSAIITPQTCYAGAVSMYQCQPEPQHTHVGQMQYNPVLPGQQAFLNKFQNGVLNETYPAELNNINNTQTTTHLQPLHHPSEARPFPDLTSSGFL
Protocol description: In vitro assay 1: XRE-luciferase reporter assay, antagonism in human cell line (HepG2)
Assay type: cell-based
Condition: HepG2 XRE-luciferase, cells treated with kynurenine 50 μM (*), 6 hours; read-out: Assay 1: AhR-Luc Human Antagonism (IC50)

Compound	Measured attribute	Endpoint value
CC(=O)OCC(C)n1cnc2c(-c3ccc(Cl)cc3)nc(Cl)cc2c1=O (centres unmarked)	IC50	> 1 µM

Input: Lab note: record IC50 of CCC(CO)n1cnc2c(-c3cccnc3)nc(-c3ccc(C(F)(F)F)cc3)cc2c1=O (centres unmarked) tested on AhR (Homo sapiens, UniProt P35869).
Output: > 1 µM

Input: Lab note: record IC50 of O=c1c2cc(-c3ccc(C(F)(F)F)cc3)nc(-c3cccnc3)c2ncn1[C@H]1CC[C@H](O)CC1 tested on AhR (Homo sapiens, UniProt P35869).
Output: < 0.01 µM

Input: Lab note: record IC50 of CCC(CO)n1cnc2c(-c3cccnc3)nc(-c3ccc(Cl)cc3)cc2c1=O (centres unmarked) tested on AhR (Homo sapiens, UniProt P35869).
Output: < 0.01 µM

Input: Lab note: record IC50 of CC(CO)n1cnc2c(-c3cccnc3)nc(-c3ccc(C(F)(F)F)cc3)cc2c1=O (centres unmarked) tested on AhR (Homo sapiens, UniProt P35869).
Output: < 0.01 µM

Input: Lab note: record IC50 of CCC(CO)n1cnc2c(-c3cccc(F)c3)nc(-c3ccc(Cl)cc3)cc2c1=O (centres unmarked) tested on AhR (Homo sapiens, UniProt P35869).
Output: < 0.01 µM

Input: Lab note: record IC50 of CC(CO)n1cnc2c(-c3ccc(C(F)(F)F)cc3)nc(-c3cnn(C)c3)cc2c1=O (centres unmarked) tested on AhR (Homo sapiens, UniProt P35869).
Output: > 1 µM

Input: Lab note: record IC50 of CC(CO)n1cnc2c(-c3ccc(C(F)(F)F)cc3)nc(-c3ccc(C(F)(F)F)cc3)cc2c1=O (centres unmarked) tested on AhR (Homo sapiens, UniProt P35869).
Output: 0.1 to 1 µM

Input: Lab note: record IC50 of CCC(CO)n1cnc2c(-c3cnn(C)c3)nc(-c3ccc(C(F)(F)F)cc3)cc2c1=O (centres unmarked) tested on AhR (Homo sapiens, UniProt P35869).
Output: > 1 µM

Input: Lab note: record IC50 of CC(O)Cn1cnc2c(-c3cnn(C)c3)nc(-c3ccc(C(F)(F)F)nc3)cc2c1=O (centres unmarked) tested on AhR (Homo sapiens, UniProt P35869).
Output: < 0.01 µM

Input: Lab note: record IC50 of CCC(CO)n1cnc2c(-c3cnn(C)c3)nc(-c3ccc(Cl)cc3)cc2c1=O (centres unmarked) tested on AhR (Homo sapiens, UniProt P35869).
Output: < 0.01 µM

Input: Lab note: record IC50 of CC(CO)n1cnc2c(-c3cnn(C)c3)nc(-c3cnn(C)c3)cc2c1=O (centres unmarked) tested on AhR (Homo sapiens, UniProt P35869).
Output: > 1 µM

Input: Lab note: record IC50 of Cn1cc(-c2cc3c(=O)n(C4CCCC(O)C4)cnc3c(-c3cnn(C)c3)n2)cn1 (centres unmarked) tested on AhR (Homo sapiens, UniProt P35869).
Output: 0.1 to 1 µM

Input: Lab note: record IC50 of CC(CO)n1cnc2c(-c3cnn(C)c3)nc(-c3ccc(C(F)(F)F)cc3)cc2c1=O (centres unmarked) tested on AhR (Homo sapiens, UniProt P35869).
Output: < 0.01 µM

Input: Lab note: record IC50 of CC(CO)n1cnc2c(-c3cccnc3)nc(-c3ccc(C(F)(F)F)nc3)cc2c1=O (centres unmarked) tested on AhR (Homo sapiens, UniProt P35869).
Output: < 0.01 µM

Input: Lab note: record IC50 of CC(O)Cn1cnc2c(-c3cnn(C)c3)nc(-c3cnn(C)c3)cc2c1=O (centres unmarked) tested on AhR (Homo sapiens, UniProt P35869).
Output: 0.1 to 1 µM

Input: Lab note: record IC50 of Cn1cc(-c2nc(-c3ccc(C(F)(F)F)cc3)cc3c(=O)n(C4CCCC(O)C4)cnc23)cn1 (centres unmarked) tested on AhR (Homo sapiens, UniProt P35869).
Output: < 0.01 µM
